measured-on: hGLP-1R (Homo sapiens, UniProt P43220)
Sequence (P43220 24-463): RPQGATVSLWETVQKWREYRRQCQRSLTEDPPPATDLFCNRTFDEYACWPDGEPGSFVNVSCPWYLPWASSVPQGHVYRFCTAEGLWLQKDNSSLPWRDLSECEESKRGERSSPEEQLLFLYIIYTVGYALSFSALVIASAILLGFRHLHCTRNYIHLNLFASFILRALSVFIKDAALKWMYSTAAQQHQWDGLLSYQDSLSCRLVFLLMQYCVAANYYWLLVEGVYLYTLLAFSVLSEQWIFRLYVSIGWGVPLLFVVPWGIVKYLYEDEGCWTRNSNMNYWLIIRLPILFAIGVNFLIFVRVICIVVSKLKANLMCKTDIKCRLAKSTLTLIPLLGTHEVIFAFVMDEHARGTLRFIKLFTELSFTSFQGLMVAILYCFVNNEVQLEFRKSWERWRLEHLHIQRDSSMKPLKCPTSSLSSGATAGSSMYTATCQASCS
test: cell-based or functional assay
Starred links: 1 amine or outer side, 2 acyl side, 3 side chain; linkers in the order of their positions; H or OH if unused. Non-standard residues stand in square brackets, D forms with d. Groups on a side chain read outwards from the residue. No end group written: not given here. *: point of attachment. C20 diacid = O=C(O)CCCCCCCCCCCCCCCCCCC(=O)*; αMePhe(2-F) = C[C@](N)(Cc1ccccc1F)C(=O)O; γGlu = O=C(O)[C@H](CCC(=O)[*:2])N[*:1]; AEEA = NCCOCCOCC(=O)O; Aib = CC(C)(N)C(=O)O
Please note: rule met applies when cAMP Rel EC50 (1% HSA) is 200 nM or greater, and rule not met applies otherwise.

Previously resolved entries follow.
| binder | assigned-category |
| --- | --- |
| YXQGTFTSDXSQXLDKKAQXAFIEYLIEXGPSSGAPPPSGSEE (acylated Lys e-γGlu-e-C18 diacid; non-natural residues; C-terminal amide; synthetic construct; SITE 2: note = 2-Aminoisobutyric Acid; SITE 10: note = 3-(4-Pyridyl)-L-alanine; SITE 13: note = alpha-methyl-leucine; SITE 17: note = Lysine is chemically modified through conjugation of the epsilon-amino group of the Lysine side chain with D-Glutamic acid-(gamma-Glu)-D-Glutamic) [Example 931] | rule met |
| Y[Aib]QGT[αMePhe(2-F)]TSDYSKLLDKIAQKAFIQYLIEGGPSSGEPPPSEG-NH2 (not fully specified (residue 20)) [Example 338] | rule not met |
| Y[Aib]QGT[αMePhe(2-F)]TSDYSILLDKQAAKEFIEYLIEGGPSSGAPPPSEG-NH2 (not fully specified (residue 20)) [Example 340] | rule met |
| Y[Aib]QGT[αMePhe(2-F)]TSDYSKLLDKQAQK([AEEA-γGlu-C20 diacid])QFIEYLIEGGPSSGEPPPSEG-NH2 [Example 309] | rule met |

Is reported cAMP Rel EC50 (1% HSA) greater than or equal to 200 nM here: YXQATXTSDXXIXLDXKAQXEFIEXLIEGGPSSGAPPPSGS (synthetic construct; SITE 2: note = 2-Aminoisobutyric Acid; SITE 4: note = D-amino acid; SITE 6: note = alpha-methyl-2-fluoro-L-phenylalanine; SITE 10: note = 3-(4-Pyridyl)-L-alanine; SITE 11: note = alpha-methyl-L-serine; SITE 13: note = alpha-methyl-leucine; SITE 16: note = L-ornithine; SITE 17: n) [Example 1203]
rule not met

Tell me whether cAMP Rel EC50 (1% HSA) is at least 200 nM here: YXQGTFTSDXSQXLDXKAQXQFIQXLIAXGPSSGEPPPSGGGE (Aib, 4Pal, αMeL, Orn, Me4Pal, αMeY; acylated lysine; amide; synthetic construct; SITE 2: note = 2-Aminoisobutyric Acid; SITE 10: note = 3-(4-Pyridyl)-L-alanine; SITE 13: note = alpha-methyl-leucine; SITE 16: note = L-ornithine; SITE 17: note = Lysine is chemically modified through conjugation of the epsilon-amino group of the Lysine side chain with D-Glutami) [Example 1128]
rule not met

Has YXQGTXTSDXXIXLDXKAQXXFIEYLIEGGPSSGEPPPSGTGE (not fully specified; C-terminal amide; synthetic construct; SITE 2: note = 2-Aminoisobutyric Acid; SITE 6: note = alpha-methyl-2-fluoro-L-phenylalanine; SITE 10: note = 3-(4-Pyridyl)-L-alanine; SITE 11: note = alpha-methyl-L-serine; SITE 13: note = alpha-methyl-leucine; SITE 16: note = L-ornithine; SITE 17: note = Lysine is chemically mo) [Example 524] a recorded cAMP Rel EC50 (1% HSA) greater than or equal to 200 nM?
rule not met

Dear colleague, could you confirm whether YXQGTFTSDXSXXLDXKAQXAFIEYLLAGGPSSGAPPPSGSEE (non-natural residues; acylated Lys; C-terminal amide; synthetic construct; SITE 2: note = 2-Aminoisobutyric Acid; SITE 10: note = 3-(4-Pyridyl)-L-alanine; SITE 12: note = L-ornithine; SITE 13: note = alpha-methyl-leucine; SITE 16: note = L-ornithine; SITE 17: note = Lysine is chemically modified through conjugation of the epsilon-amino group of the Lys) [Example 1069] has cAMP Rel EC50 (1% HSA) at or above 200 nM?
rule met

Assess whether reported cAMP Rel EC50 (1% HSA) for YXQGTXTSDXXIXLDXKAQXXFIEYLIEGGPSSGEPPPSGTE (not fully specified; printed without C-terminal amide; synthetic construct; SITE 2: note = 2-Aminoisobutyric Acid; SITE 6: note = alpha-methyl-2-fluoro-L-phenylalanine; SITE 10: note = 3-(4-Pyridyl)-L-alanine; SITE 11: note = alpha-methyl-L-serine; SITE 13: note = alpha-methyl-leucine; SITE 16: note = L-ornithine; SITE 17: note = Lysine is chemically mo) [Example 522] sits at 200 nM or higher.
rule not met

Decide: cAMP Rel EC50 (1% HSA) of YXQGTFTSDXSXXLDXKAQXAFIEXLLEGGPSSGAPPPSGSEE (Aib, 4Pal, Orn, αMeL, αMeY; lipidated Lys; C-terminal amide; synthetic construct; SITE 2: note = 2-Aminoisobutyric Acid; SITE 10: note = 3-(4-Pyridyl)-L-alanine; SITE 12: note = L-ornithine; SITE 13: note = alpha-methyl-leucine; SITE 16: note = L-ornithine; SITE 17: note = Lysine is chemically modified through conjugation of the epsilon-amino group of the Lys) [Example 1065] >= 200 nM?
rule met

# check: cAMP Rel EC50 (1% HSA) of YXQGTFTSDFSQXLDKKAQXAFIEXLIEXGPSSGAPPPSGS (non-natural residues; acylated Lys C18 diacid; C-term amide; synthetic construct; SITE 2: note = 2-Aminoisobutyric Acid; SITE 13: note = alpha-methyl-leucine; SITE 17: note = Lysine is chemically modified through conjugation of the epsilon-amino group of the Lysine side chain with (2-[2-(2-Amino-ethoxy)-ethoxy]-acetyl)-(gamma-Glu)-CO-(CH2) 16-CO2H; SITE 20: n) [Example 913] is greater than or equal to 200 nM
rule met
